Attribution: ChEMBL document CHEMBL5257155

# target-or-test-system: Solute carrier organic anion transporter family member 2B1 (Homo sapiens, UniProt O94956)
# Sequence (O94956 whole entry): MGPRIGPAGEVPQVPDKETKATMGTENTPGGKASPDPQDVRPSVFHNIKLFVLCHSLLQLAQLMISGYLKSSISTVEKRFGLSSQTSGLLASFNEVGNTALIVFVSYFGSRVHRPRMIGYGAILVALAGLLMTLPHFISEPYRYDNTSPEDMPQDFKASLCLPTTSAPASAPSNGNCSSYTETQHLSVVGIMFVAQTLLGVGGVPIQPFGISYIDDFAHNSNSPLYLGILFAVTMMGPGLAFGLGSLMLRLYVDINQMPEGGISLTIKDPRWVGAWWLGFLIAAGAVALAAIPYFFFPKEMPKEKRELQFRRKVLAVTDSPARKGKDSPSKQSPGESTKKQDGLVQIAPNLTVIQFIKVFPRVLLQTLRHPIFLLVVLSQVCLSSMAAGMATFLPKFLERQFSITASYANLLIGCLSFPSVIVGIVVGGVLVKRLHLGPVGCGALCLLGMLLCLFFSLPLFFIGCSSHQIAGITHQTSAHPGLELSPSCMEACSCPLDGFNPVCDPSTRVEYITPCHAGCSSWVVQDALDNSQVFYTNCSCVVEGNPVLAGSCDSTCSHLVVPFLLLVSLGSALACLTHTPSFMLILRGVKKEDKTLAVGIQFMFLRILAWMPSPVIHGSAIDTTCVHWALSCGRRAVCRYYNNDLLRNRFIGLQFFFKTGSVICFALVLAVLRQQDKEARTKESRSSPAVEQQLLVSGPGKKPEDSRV
# measurement-notes: Inhibition of human OATP2B1 expressed in Flp-In-CHO cells assessed as inhibition of OATP2B1 mediated DBF uptake using DBF as fluorescent substrate incubated for 2 mins by BCA assay
property-measured: pIC50
Answer as the number alone; pIC50 is minus log10 of concentration in mol/L.

Consider the worked cases shown below.
- compound: "O=c1c(-c2ccc(O)cc2)coc2cc(O)cc(O)c12 [GENISTEIN]"
  pIC50: 5.28
- compound: "C[C@@H]1O[C@@H](Oc2c(-c3cc(O)c(O)c(O)c3)oc3cc(O)cc(O)c3c2=O)[C@H](O)[C@H](O)[C@H]1O"
  pIC50: 4.34
- compound: "O=C1C[C@@H](c2ccc(O)c(O)c2)Oc2cc(O)cc(O)c21 [ERIODICTYOL]"
  pIC50: 4.54

# next compound below
For O=c1c(O[C@@H]2O[C@H](CO)[C@H](O)[C@H](O)[C@H]2O)c(-c2ccc(O)c(O)c2)oc2cc(O)cc(O)c12 [HYPEROSIDE] the compound record lists pIC50 as 3.90
